Values compiled from paper PMC6645473.

Tested on: Aβ1–42 toxicity in PC-12 cells
Assay: MTT cell viability assay, Aβ1–42 co-incubated with tetrapeptides
Type: cell-based
Conditions: test peptide 20 μM; calculated from OD570 of MTT assay in PC-12 cells
Please mark condition met if the recorded inhibition (%) of Aβ1–42 (2 μM) is equal to or greater than 3%, and condition not met if it falls below.

Problem: Determine whether this substance has inhibition (%) of Aβ1–42 (2 μM) no lower than 3%: Val-Val-Ile-Leu [compound 41]
Solution: condition not met

Problem: Determine whether this substance has inhibition (%) of Aβ1–42 (2 μM) no lower than 3%: Pro-Val-Ile-Ala [compound 9]
Solution: condition not met

Problem: Determine whether this substance has inhibition (%) of Aβ1–42 (2 μM) no lower than 3%: Val-Pro-Ile-Ala [compound 19]
Solution: condition met

Problem: Determine whether this substance has inhibition (%) of Aβ1–42 (2 μM) no lower than 3%: Ile-Val-Ile-Ala [compound 7]
Solution: condition not met

Problem: Determine whether this substance has inhibition (%) of Aβ1–42 (2 μM) no lower than 3%: Leu-Val-Ile-Ala [compound 5]
Solution: condition not met

Problem: Determine whether this substance has inhibition (%) of Aβ1–42 (2 μM) no lower than 3%: Val-Leu-Ile-Ala [compound 15]
Solution: condition met

Problem: Determine whether this substance has inhibition (%) of Aβ1–42 (2 μM) no lower than 3%: Pro-Pro-Ile-Ala [compound 25]
Solution: condition met

###

I'd appreciate it if you could supply inhibition (%) of Aβ1–42 (2 μM) values for the items below.
Tested on: Aβ1–42 toxicity in PC-12 cells
Assay: MTT cell viability assay, Aβ1–42 co-incubated with tetrapeptides
Format: cell-based
Conditions: test peptide 20 μM; calculated from OD570 of MTT assay in PC-12 cells
Give the value, in units of %, as a plain number.

Problem: Give recorded inhibition (%) of Aβ1–42 (2 μM) with Aβ1–42 toxicity in PC-12 cells for the following substance: Val-Val-Ile-Val [compound 40]
Solution: 9.0

Problem: Give recorded inhibition (%) of Aβ1–42 (2 μM) with Aβ1–42 toxicity in PC-12 cells for the following substance: Val-Val-Phe-Ala [compound 36]
Solution: 0

Problem: Give recorded inhibition (%) of Aβ1–42 (2 μM) with Aβ1–42 toxicity in PC-12 cells for the following substance: Val-Val-Ile-Phe [compound 44]
Solution: 0

Problem: Give recorded inhibition (%) of Aβ1–42 (2 μM) with Aβ1–42 toxicity in PC-12 cells for the following substance: Val-Val-Leu-Ala [compound 29]
Solution: 0

Problem: Give recorded inhibition (%) of Aβ1–42 (2 μM) with Aβ1–42 toxicity in PC-12 cells for the following substance: Val-Val-Val-Ala [compound 31]
Solution: 3.0

Problem: Give recorded inhibition (%) of Aβ1–42 (2 μM) with Aβ1–42 toxicity in PC-12 cells for the following substance: Val-Ile-Ile-Ala [compound 17]
Solution: 0

Problem: Give recorded inhibition (%) of Aβ1–42 (2 μM) with Aβ1–42 toxicity in PC-12 cells for the following substance: Val-Val-Ile-Ile [compound 42]
Solution: 29.0
